Cited source: patent US20190060428A1

Consider the following substances and their measured % Purity readings.
Assay: Short-term room temperature stability of Pool 3 mixed with Hiltonol (RP-HPLC)
Format: physicochemical
Details: T0 Pool 3 + Hiltonol, RP-HPLC

>  <substance>
H-AESAQRQGPNGGGEQSANEF-OH [CS7416]

>  <reading>
97.65%

$$$$

Next item in the queue.
Given the substance H-SKRGVGAKTLLLPDPFLFWPCLEGTRRSL-OH [CS6934] , what is its reported % Purity? 96.17%

====

Consider the following substances and their measured Main Peak readings.
Assay: Short-term room temperature stability of Pool 3 mixed with Hiltonol (RP-HPLC)
Type: physicochemical
Conditions: Pool 3 + Hiltonol, 6 Hours RT
Number, no unit, nothing else.

>  <substance>
H-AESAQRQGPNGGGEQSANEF-OH [CS7416]

>  <reading>
6197.48

$$$$
>  <substance>
H-KLAWRGRISSSGCPSMTSPPSPMFGMTLHT-OH [CS6919]

>  <reading>
7688.89

$$$$
>  <substance>
H-VAGLAASGLHGSAWLVPGEQPVSGPHHGKQ-OH [CS6931]

>  <reading>
9387.81

$$$$
>  <substance>
H-AHRQGEKQHLLPVFSRLALRLPWRHSVQL-OH [CS6941]

>  <reading>
7158.29

$$$$

Next item in the queue.
Given the substance H-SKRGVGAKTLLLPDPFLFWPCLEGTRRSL-OH [CS6934] , what is its reported Main Peak? 6268.16
